- Method notes: Percentage bioactive sulfur contained in hydrogen sulfide prodrugs
- Type: physicochemical
Endpoint label: % Bioactive sulfur (w/w)

# Molecule, % Bioactive sulfur (w/w)
measured = [
    ("O=C(CCC/C=C\\C[C@@H]1[C@@H](CC[C@@H](O)CCc2ccccc2)[C@H](O)C[C@@H]1O)Oc1ccc(-c2cc(=S)ss2)cc1 [ACS 67]", "5.3 % (w/w)"),
    ("[Na+].[Na+].[S-2] [Na2S (anhydrous), Na2S]", "41 % (w/w)"),
    ("O=C(Cc1ccccc1Nc1c(Cl)cccc1Cl)Oc1ccc(-c2cc(=S)ss2)cc1 [ACS 15]", "6.3 % (w/w)"),
    ("COc1ccc2c(c1)c(CC(=O)Oc1ccc(-c3cc(=S)ss3)cc1)c(C)n2C(=O)c1ccc(Cl)cc1 [ATB 343]", "5.6 % (w/w)"),
]

Task: Give the reported % Bioactive sulfur (w/w) for this molecule. C1COCCN1.COc1ccc(P(=S)(S)N2CCOCC2)cc1 (centres unmarked) [GYY 4137]
Result: 8.5 % (w/w)
